tested on: M14 melanoma; experiment: NCI tumour cell line growth inhibition, 48 h
MEASURED_QUANTITY: TGI

Known results for compounds:
STRUCTURE_STRING: C=CCn1c(=O)c2ccccc2[n+]2c(C)c(C(=O)OCC)sc12
TGI: > 100 µM
--
STRUCTURE_STRING: COc1c(C=O)c2c(c(OC)c1OC)-c1ccc(OC)c(=O)cc1[C@@H](NC(C)=O)CC2
TGI: > 25.2 µM

Alright, here's another compound for you.
For the compound O=C1[C@@H]2C(c3ccccc3Br)=NO[C@@H]2C(=O)N1c1ccc(Cc2ccc(N3C(=O)[C@H]4C(c5ccccc5Br)=NO[C@H]4C3=O)cc2)cc1 , what TGI is on record? > 100 µM

###

test system: A549 NSCLC; assay: NCI tumour cell line growth inhibition, 48 h
MEASURED_QUANTITY: GI50

Entry CC(=O)OC1C(C)OC(Oc2c(C)c3c4c(c2O)[C@@H](C)CC[C@@H]4[C@@H](C)C[C@H]3C=C(C)C)C(O)C1O (stereo partly drawn) : reported GI50 = ? 10 µM

Would you kindly share the measured GI50 for CC(=O)NCCc1c2c(c3nccc4c3c1Nc1ccccc1-4)OCS2 ? 1.29 µM

Consider the molecule shown here: CCNC(=O)[C@@H]1CCCN2C(=O)CC[C@H](NC(=O)[C@H](Cc3ccc(OP(=O)(O)O)cc3)NC(C)=O)C(=O)N12 What is its recorded GI50? > 25 µM

###

tested on: 786-0 renal; assay: NCI tumour cell line growth inhibition, 48 h
Where a SMILES comes first, the peptide text is derived from it. The star is where a group is joined. Boc = CC(C)(C)OC(=O)*; Bz = O=C(c1ccccc1)*
Entries and their TGI

Consider the worked cases shown below.
COMPOUND: COc1ccccc1/C=C(\C#N)c1ccccc1
TGI: 42.5 µM
//
COMPOUND: O=C1[C@@H]2C(c3ccccc3Br)=NO[C@@H]2C(=O)N1c1ccc(Cc2ccc(N3C(=O)[C@H]4C(c5ccccc5Br)=NO[C@H]4C3=O)cc2)cc1
TGI: > 100 µM

Can you look up the measured TGI of COc1c(C=O)c2c(c(OC)c1OC)-c1ccc(OC)c(=O)cc1[C@@H](NC(C)=O)CC2 for me? > 75.6 µM

Entry under review: COc1ccc(C2CC(=O)c3c(O)cc(O)cc3O2)cc1O (configuration not stated) . Reported TGI? > 100 µM

Would you mind telling me what TGI value was observed for COc1cc2c(/C=C3/C(=O)N(C)c4ccccc43)c(Cl)[nH]c2cc1C ? 16.5 µM

Could you tell me which TGI is on file for CC(C)(C)c1cc(C(=O)Nc2cc(Br)c(Br)cc2S(N)(=O)=O)cc(C(C)(C)C)c1O ? 23 µM

// query TGI value for entry CC(NC(=O)C(Cc1ccc(OC(=O)c2ccccc2)cc1)NC(=O)OC(C)(C)C)C(=O)NC(Cc1ccccc1)C(=O)NCC(N)=O (configuration not stated) (Boc-Y(Bz)AFG-NH2; configuration not given here) 43.5 µM

###

system: HL-60(TB) leukemia; experiment: NCI tumour cell line growth inhibition, 48 h
Label -1 if TGI falls below 5 µM; label 1 in every other case.

COMPOUND: C/C=C/[C@H]1O[C@@](O)([C@@H](C)[C@H](O)[C@H](C)[C@H]2OC(=O)/C(OC)=C/C(C)=C/[C@@H](C)[C@@H](O)[C@@H](CC)[C@@H](O)[C@H](C)C/C(C)=C/C=C/[C@@H]2OC)C[C@H](OC2CC(O)C(O)C(C)O2)[C@@H]1C (some centres undefined)
CLASSIFICATION: -1
//
COMPOUND: CCOC(=O)CN1C(=O)c2c(c(C)n(-c3ccccc3)c2C)C1=O
CLASSIFICATION: 1
//
COMPOUND: CN(Cc1cnc2nc(N)nc(N)c2n1)c1ccc(C(=O)NC(CCC(=O)O)C(=O)O)cc1C(F)(F)F (centres undefined)
CLASSIFICATION: 1

State whether the measured TGI reaches 5 µM, counting equality as reaching it, for NCCSc1nc2ccccc2s1 1

Could you tell me if the measured TGI of Cc1ccc(S(=O)(=O)N2CCCN(S(=O)(=O)c3ccc(C)cc3)CCN(S(=O)(=O)c3ccc(C)cc3)CCCSCC2)cc1 reaches 5 µM or more? 1

Has CCCCCCCC1C(C)c2c([nH]c3ccccc23)C2C(=O)N(c3ccc(OC)cc3)C(=O)C21 (centres undefined) a recorded TGI greater than or equal to 5 µM? -1

Is TGI for Cc1ccc(-c2nc(C)c(C(=O)Nc3ccc(Cl)cc3)s2)cc1 at or above 5 µM? 1

Dear colleague, could you confirm whether Nc1ccc2c(c1)C(=O)C(=O)c1c-2nc2ccccn12 has TGI at or above 5 µM? 1

Is TGI at least 5 µM? Consider Cc1ccc2c(c1)C(C)Cc1c(ncnc1-n1cnc3ccccc31)N2C (centres undefined) -1

Does the compound COc1ccc(/C=C2\CCCC(CN(C)C)C2=O)cc1 (centres undefined) have recorded TGI that is 5 µM or more? -1

Entry C/C(=N\NC(=O)c1sc(=S)n(C)c1N)c1cc2ccccc2o1 : is its TGI no less than 5 µM? 1

Check the entry CCOC(=O)c1ccc(Nc2cnc3cc(C(F)(F)F)ccc3n2)cc1 : does TGI equal or exceed 5 µM? 1

Is TGI for Cn1cc(-c2ccc3c(Nc4cccc(NC(=O)Nc5cccc(F)c5)c4)ncnc3c2)cn1 at or above 5 µM? 1

Check this compound for TGI at or above 5 µM: Clc1ccc(CSC(Cn2ccnc2)c2ccc(Cl)cc2Cl)cc1 (centres undefined) -1

###

system: CAKI-1 renal; test: NCI tumour cell line growth inhibition, 48 h
TGI values by entry

Solved cases (2 shown):
STRUCTURE_STRING: COc1cc(/C=C/c2ccncc2)cc(OC)c1OC
VAL: > 100 µM

STRUCTURE_STRING: Cc1cccc(NC(=O)CCc2ccc(N3C(N)=NC(N)=NC3(C)C)cc2)c1
VAL: > 100 µM

Attention now turns to another entry.
I would be grateful if you could share the reported TGI for CC(=N\N)/C(C)=N/N=C(C)/C(C)=N/N=C(C)/C(C)=N/N=C(C)/C(C)=N/N . > 100 µM

###

tested on: SF-268 CNS; assay: NCI tumour cell line growth inhibition, 48 h
MEASURED_QUANTITY: GI50

Entry NCCNc1c2c(c(NCCN)c3c(CO)c[nH]c13)C(=O)c1ccccc1C2=O has what GI50? 795 nM

Item under review: N=C(N)c1ccc(OCc2cccc(COc3ccc(C(=N)N)cc3)c2)cc1 . Reported GI50? 5530 nM

###

Property: TGI; scope: individual compounds
system: SK-MEL-5 melanoma; test: NCI tumour cell line growth inhibition, 48 h

COMPOUND: COc1ccccc1/C=C/C1=NN(c2cccc(S(=O)(=O)O)c2)C2(C1)SCC(=O)N2c1nc2ccccc2s1 (stereo not drawn)
ASSAY_SYSTEM: SK-MEL-5 melanoma
VAL: > 100 µM
//
COMPOUND: CCOC(=O)c1c2c(c(O)c3ccccc3c(O)n(Cc3ccc(OC)cc3)c1C)C(=O)C=CC2=O
ASSAY_SYSTEM: SK-MEL-5 melanoma
VAL: > 100 µM
//
COMPOUND: CC(C)(C)OC(=O)NCCCCC(N)C(N)=O (stereo not drawn)
ASSAY_SYSTEM: SK-MEL-5 melanoma
VAL: > 100 µM
//
COMPOUND: CN(Cc1cnc2nc(N)nc(N)c2n1)c1ccc(C(=O)NC(CCC(=O)O)C(=O)O)cc1C(F)(F)F (stereo not drawn)
ASSAY_SYSTEM: SK-MEL-5 melanoma
VAL: > 100 µM
//
COMPOUND: Nc1ncnc2c1ncn2C1OC(COP(=O)(O)O)C(O)C1O (stereo not drawn)
ASSAY_SYSTEM: SK-MEL-5 melanoma
VAL: > 50 µM

Hello, I am looking for reported TGI with SK-MEL-5 melanoma for NCCSc1nc2ccccc2s1 . Could you help? > 100 µM

Hi! What's the reported TGI for Clc1ncnc(Cl)c1Cl on SK-MEL-5 melanoma? > 100 µM

###

Listed next: entries and their corresponding TGI.
system: SNB-75 CNS; test: NCI tumour cell line growth inhibition, 48 h

COMPOUND: O=C(CN1CCN(Cc2ccccc2)CC1)c1ccc2[nH]c(=O)oc2c1
ASSAY_SYSTEM: SNB-75 CNS
MEASURED_QUANTITY: TGI
VAL: > 100 µM

Name the reported TGI value associated with the compound CCC(C)n1c(C)nc2c1C(=O)c1ccccc1C2=O (stereo not drawn) > 100 µM

Entry COc1c(C=O)c2c(c(OC)c1OC)-c1ccc(OC)c(=O)cc1[C@@H](NC(C)=O)CC2 has what TGI? > 100 µM

###

tested on: SK-MEL-5 melanoma; test: NCI tumour cell line growth inhibition, 48 h; in the data active = GI50 below about 0.43 µM; inactive = the rest
Just give me one of these, please: active, inactive

Here are 3 compounds together with their reported answers.
COMPOUND: CCS(=O)(=O)N1CCC(C(C)n2c(C)c(C(=O)NCc3c(OC)cc(C)[nH]c3=O)c3ccccc32)CC1 (configuration not stated)
CLASSIFICATION: inactive
//
COMPOUND: CC(C)[C@]12O[C@H]1[C@@H]1O[C@]13[C@]1(O[C@H]1C[C@H]1C4=C(CC[C@@]13C)C(=O)OC4)[C@@H]2O
CLASSIFICATION: active
//
COMPOUND: O=C1C(Cl)=C(Nc2cccc(Cl)c2)C(=O)N1Cc1ccccc1
CLASSIFICATION: inactive

GET /call?item= Cc1nc(-c2cccc(Nc3nc(-c4ccc(Cl)cc4)cs3)c2)cs1 returns the recorded outcome of this test. inactive

Hi team, can someone confirm the assay call for O=C(Nc1ccc(Cl)c(Cl)c1)c1cccc(NC2=C(Cl)C(=O)N(Cc3ccccc3)C2=O)c1 ? inactive

# outcome recorded in this test, key = CC(=O)OC1C(C)OC(Oc2c(C)c3c4c(c2O)[C@@H](C)CC[C@@H]4[C@@H](C)C[C@H]3C=C(C)C)C(O)C1O (some centres not stated) inactive

What classification did N=C(N)c1ccc(OCc2cccc(COc3ccc(C(=N)N)cc3)c2)cc1 end up with in this test? inactive
